Item-by-item account of EC50
SUBJECT OF TEST: hGhrR (COS7 cells stably expressing hGhrR-eYFP) (Homo sapiens, UniProt Q92847)
Sequence (Q92847 whole entry): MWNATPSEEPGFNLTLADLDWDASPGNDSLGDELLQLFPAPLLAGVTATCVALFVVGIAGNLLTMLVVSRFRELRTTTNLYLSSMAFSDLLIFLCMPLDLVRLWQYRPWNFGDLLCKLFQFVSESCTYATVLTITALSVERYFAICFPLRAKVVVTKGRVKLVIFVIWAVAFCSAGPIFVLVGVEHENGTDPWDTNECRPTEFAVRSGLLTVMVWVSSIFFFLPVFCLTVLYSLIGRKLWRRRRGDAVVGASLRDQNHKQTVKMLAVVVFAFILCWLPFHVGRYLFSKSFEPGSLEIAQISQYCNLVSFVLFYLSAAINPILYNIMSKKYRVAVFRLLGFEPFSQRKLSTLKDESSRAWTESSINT
ASSAY NAME: cell-based
SETUP CONDITIONS: EC50, 2 h stimulation in absence of ghrelin, COS7-hGhrR
MEASURE: EC50 (nM)

INSERT INTO measurements (compound, subject_of_test, display_unit, readout_value) VALUES
  ('Cc1nc2ccc(Oc3ccc(Br)cc3F)nc2c(=O)n1C[C@@H]1CCCN(C(C)C)C1 [(R)-9]', 'hGhrR (COS7 cells stably expressing hGhrR-eYFP) (Homo sapiens, UniProt Q92847)', 'nM', 0.6),
  ('Cc1nc2ccc(Oc3ccc(Br)cc3F)nc2c(=O)n1C[C@H]1CCCN(C(C)C)C1 [(S)-9]', 'hGhrR (COS7 cells stably expressing hGhrR-eYFP) (Homo sapiens, UniProt Q92847)', 'nM', 0.7),
  ('Cc1nc2ccc(Oc3ccc(Br)cc3F)nc2c(=O)n1C[C@H]1CCCN(C(C)CF)C1 (stereo partly drawn) [(S)-13]', 'hGhrR (COS7 cells stably expressing hGhrR-eYFP) (Homo sapiens, UniProt Q92847)', 'nM', 1.4);
